# PROCEDURE DETAILS: activity coefficient (dimensionless); of the first substance listed, at infinite dilution; xn = mol fraction of the nth substance listed
# TEST CONDITIONS: 363.15 K; 101 kPa; Liquid; Chromatography; x1 = 0
ENDPOINT: activity coefficient

>>> test_result("ClC(Cl)Cl [trichloromethane] + CCCCn1cc[n+](C)c1.O=[N+]([O-])[O-]")
0.504
>>> test_result("CCO [ethanol] + CCCCn1cc[n+](C)c1.O=[N+]([O-])[O-]")
0.507
>>> test_result("CC1CCCCC1 [methylcyclohexane] + CCCCn1cc[n+](C)c1.O=[N+]([O-])[O-]")
31.2
